Conditions: human;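 also: human clinical data: severe hepatitis, meaning potentially life-threatening liver failure or clinically observed cases, the value counts how many indexed literature references report it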
measurementType: Hepatotoxicity (severe hepatitis)

{"molecule": "O=C(NCCN1CCOCC1)c1ccc(Cl)cc1 [MOCLOBEMIDE]", "endpointValue": 1}
{"molecule": "O=C(N[C@H](CO)[C@H](O)c1ccc([N+](=O)[O-])cc1)C(Cl)Cl [CHLORAMPHENICOL]", "endpointValue": 0}
{"molecule": "Cc1cc(C(=O)NNCc2ccccc2)no1 [ISOCARBOXAZID]", "endpointValue": 1}
{"molecule": "CO[C@H]1[C@@H](O)[C@H](N)[C@@H](O[C@H]2O[C@H]([C@H](C)N)CC[C@H]2N)[C@H](O)[C@@H]1N(C)C(=O)CN [ASTROMICIN]", "endpointValue": 0}
{"molecule": "Nc1ccc(C(=O)O)c(O)c1 [AMINOSALICYLIC ACID]", "endpointValue": 6}
{"molecule": "CN1CCC(=C2c3ccccc3CCc3sccc32)CC1 [PIZOTYLINE]", "endpointValue": 0}
{"molecule": "O=[N+]([O-])c1ccc(O)c([N+](=O)[O-])c1 [2,4-DINITROPHENOL]", "endpointValue": 2}
{"molecule": "CCOC(=O)[C@H](CCc1ccccc1)N[C@H]1CCc2ccccc2N(CC(=O)O)C1=O [BENAZEPRIL]", "endpointValue": 1}
{"molecule": "O=C1CN(/N=C/c2ccc(-c3ccc([N+](=O)[O-])cc3)o2)C(O)=N1 [DANTROLENE]", "endpointValue": 7}
{"molecule": "Cn1c(=O)c2[nH]cnc2n(C)c1=O.O [THEOPHYLLINE]", "endpointValue": 0}
{"molecule": "Cc1nnc(NS(=O)(=O)c2ccc(N)cc2)s1 [SULFAMETHIZOLE]", "endpointValue": 0}
{"molecule": "CCN[C@@H]1C[C@H](N)[C@@H](O[C@H]2OC(CN)=CC[C@H]2N)[C@H](O)[C@H]1O[C@H]1OC[C@](C)(O)[C@H](NC)[C@H]1O [NETILMICIN]", "endpointValue": 0}
{"molecule": "CSc1nc2cc(Cl)c(Oc3cccc(Cl)c3Cl)cc2[nH]1 [TRICLABENDAZOLE]", "endpointValue": 0}
{"molecule": "CC1(C)S[C@@H]2[C@H](NC(=O)[C@H](N)c3ccccc3)C(=O)N2[C@H]1C(=O)O [AMPICILLIN]", "endpointValue": 1}
{"molecule": "CC(=O)Nc1ccc(/C=N/NC(N)=S)cc1 [AMITHIOZONE]", "endpointValue": 2}
{"molecule": "COc1ccc2c(C(=O)c3ccc(Cl)cc3)c(C)n(CC(=O)O)c2c1 [CLOMETACIN]", "endpointValue": 9}
{"molecule": "O=C(O)C(=O)O [OXALIC ACID]", "endpointValue": 0}
{"molecule": "CC(CN(C)C)CN1c2ccccc2CCc2ccccc21 (configuration not stated) [TRIMIPRAMINE]", "endpointValue": 0}
{"molecule": "Nc1ccn([C@@H]2O[C@H](CO)[C@@H](O)C2(F)F)c(=O)n1 [GEMCITABINE]", "endpointValue": 2}
{"molecule": "O=C1NCCN1CCN1CCC(c2cn(-c3ccc(F)cc3)c3ccc(Cl)cc23)CC1 [SERTINDOLE]", "endpointValue": 0}
{"molecule": "NC(=O)c1csc([C@@H]2O[C@H](CO)[C@@H](O)[C@H]2O)n1 [TIAZOFURIN]", "endpointValue": 0}
{"molecule": "Nc1nc(=O)[nH]cc1F [FLUCYTOSINE]", "endpointValue": 2}

Every entry's value here was drawn from ChEMBL document CHEMBL3137667.
